B1: TPR t1 (parent)
chain: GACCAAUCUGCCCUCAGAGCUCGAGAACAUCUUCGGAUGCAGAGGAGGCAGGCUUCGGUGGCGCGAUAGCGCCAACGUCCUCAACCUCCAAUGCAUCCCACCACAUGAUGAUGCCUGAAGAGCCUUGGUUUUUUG

# Variants of: B1
# testDescription: polymerase ribozyme fitness, log enrichment relative to wild type (log ratio); higher = more active; in vitro selection for triplet polymerase activity
variants and their reported polymerase ribozyme fitness (log ratio)

# mutationList, polymerase ribozyme fitness (log ratio)
rows = [
    ("C22U A46C C70U", -6.66),
    ("A16C C22U G60C G93C A118U A121G", -6.04),
    ("G10A A16U A66C C88A U92C G120U", -3.94),
    ("C3A U9C C11A C49G U109A U126G", -6.11),
    ("A18G A50U C56A C79A C101U A118U C124U", -7.24),
    ("G77A C79U", 0.354),
    ("G35U G36U C124U", -5.29),
    ("G36A C40A C56U G110A U116A C124A U125G", -7.28),
    ("U14G A74U", -2.04),
    ("G110A A121U", 0.16),
    ("A27G C49A U78C", -2.36),
]
